Biological target: T1, PMA-treated THP-1 cells (endogenously expressed human MSR1) (Homo sapiens, UniProt P21757)
T1 construct: endogenous in cells; host or cells: THP-1 cells differentiated with PMA
T1 sequence (P21757 1-451): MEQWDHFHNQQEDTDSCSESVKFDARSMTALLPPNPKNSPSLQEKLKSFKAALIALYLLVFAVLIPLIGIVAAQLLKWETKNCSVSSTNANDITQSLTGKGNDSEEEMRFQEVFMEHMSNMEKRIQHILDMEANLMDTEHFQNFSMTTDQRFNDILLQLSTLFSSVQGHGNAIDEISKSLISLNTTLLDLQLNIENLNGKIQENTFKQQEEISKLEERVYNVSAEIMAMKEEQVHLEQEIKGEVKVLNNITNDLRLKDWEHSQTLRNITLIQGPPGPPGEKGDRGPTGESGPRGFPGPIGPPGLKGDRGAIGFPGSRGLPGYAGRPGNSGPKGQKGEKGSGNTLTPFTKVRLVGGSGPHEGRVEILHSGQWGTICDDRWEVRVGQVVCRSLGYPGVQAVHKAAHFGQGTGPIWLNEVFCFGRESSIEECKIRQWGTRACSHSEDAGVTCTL
Test: Electrochemiluminescence antibody binding assay on MSR1-expressing cells
Assay type: cell-based
Ratio of 11 nM Antibody Binding Signal (RLU) to isotype control, PMA-treated THP-1 for assorted molecules
assayReadout: Ratio of 11 nM Antibody Binding Signal (RLU) to isotype control, PMA-treated THP-1

[
  {
    "molecule": "H1H21227N: \"anti-MSR1 antibodies ... (21227N, 21231N, 21234N) were produced with the original human Fcγ portion\"; \"H1H\" = human IgG1 Fc (antibody, V domains shown, human IgG1 Fc, \"anti-MSR1 antibodies ; (21227N, 21231N, 21234N) were produced with the original human Fcγ portion\"; \"H1H\" = human IgG1 Fc) VH: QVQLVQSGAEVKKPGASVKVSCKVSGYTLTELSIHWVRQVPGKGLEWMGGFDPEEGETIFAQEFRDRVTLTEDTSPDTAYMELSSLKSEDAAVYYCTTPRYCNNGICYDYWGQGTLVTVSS VL: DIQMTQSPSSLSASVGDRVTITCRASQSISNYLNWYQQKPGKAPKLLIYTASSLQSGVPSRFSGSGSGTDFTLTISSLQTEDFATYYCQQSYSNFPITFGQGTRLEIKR",
    "obsValue": 7
  },
  {
    "molecule": "H1H27731P-N297Q: one of \"Twelve anti-MSR1 antibodies\"; \"made with an N297Q single point mutation in human Fcγ portion\" (antibody, V domains shown) VH: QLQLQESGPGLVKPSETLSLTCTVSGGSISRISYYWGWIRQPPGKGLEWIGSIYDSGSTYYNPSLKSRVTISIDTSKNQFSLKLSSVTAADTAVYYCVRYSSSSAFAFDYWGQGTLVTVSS VL: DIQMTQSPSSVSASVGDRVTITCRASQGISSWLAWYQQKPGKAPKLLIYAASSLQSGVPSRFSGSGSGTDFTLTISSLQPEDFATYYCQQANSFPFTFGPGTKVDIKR",
    "obsValue": 38
  }
]
